assay: Cytotoxicity in human HN12 cells assessed as reduction in cell viability incubated for 24 hrs by MTT assay; format: functional, cell-based; conditions: HN12, 24 h
We begin with a simple list: items and their reported pIC50.
Scale: pIC50 equals -log10([C]), with [C] in mol/L.

NC(=O)c1ccc(NS(=O)(=O)c2ccc(-c3ccccc3)cc2)cc1O :: 8.30

Let's switch to this molecule now.
Looking for the measured pIC50 of O=CN/N=C/c1ccc(NS(=O)(=O)c2ccc(-c3ccccc3)cc2)cc1O , can you help?
8.30

###

We begin with a simple list: items and their reported IC50.
test system: 184B5; assay: Cytotoxicity in human 184B5 cells assessed as reduction in cell viability incubated for 24 hrs by MTT assay; type: cell-based; conditions: 184B5, 24 h
Answer with the figure and its unit, nothing else.

NC(=O)c1ccc(NS(=O)(=O)c2ccc(-c3ccccc3)cc2)cc1O :: 1960 nM

Let's switch to this compound now.
Lab note: need IC50 for O=CN/N=C/c1ccc(NS(=O)(=O)c2ccc(-c3ccccc3)cc2)cc1O on 184B5, anyone have it?
1840 nM
